Target: mouse TMEM16A mutant G510P (Mus musculus, UniProt Q8BHY3, G510P)
Construct: expressed in transfected cells; host or cells: HEK293T
Sequence (Q8BHY3 whole entry G510P): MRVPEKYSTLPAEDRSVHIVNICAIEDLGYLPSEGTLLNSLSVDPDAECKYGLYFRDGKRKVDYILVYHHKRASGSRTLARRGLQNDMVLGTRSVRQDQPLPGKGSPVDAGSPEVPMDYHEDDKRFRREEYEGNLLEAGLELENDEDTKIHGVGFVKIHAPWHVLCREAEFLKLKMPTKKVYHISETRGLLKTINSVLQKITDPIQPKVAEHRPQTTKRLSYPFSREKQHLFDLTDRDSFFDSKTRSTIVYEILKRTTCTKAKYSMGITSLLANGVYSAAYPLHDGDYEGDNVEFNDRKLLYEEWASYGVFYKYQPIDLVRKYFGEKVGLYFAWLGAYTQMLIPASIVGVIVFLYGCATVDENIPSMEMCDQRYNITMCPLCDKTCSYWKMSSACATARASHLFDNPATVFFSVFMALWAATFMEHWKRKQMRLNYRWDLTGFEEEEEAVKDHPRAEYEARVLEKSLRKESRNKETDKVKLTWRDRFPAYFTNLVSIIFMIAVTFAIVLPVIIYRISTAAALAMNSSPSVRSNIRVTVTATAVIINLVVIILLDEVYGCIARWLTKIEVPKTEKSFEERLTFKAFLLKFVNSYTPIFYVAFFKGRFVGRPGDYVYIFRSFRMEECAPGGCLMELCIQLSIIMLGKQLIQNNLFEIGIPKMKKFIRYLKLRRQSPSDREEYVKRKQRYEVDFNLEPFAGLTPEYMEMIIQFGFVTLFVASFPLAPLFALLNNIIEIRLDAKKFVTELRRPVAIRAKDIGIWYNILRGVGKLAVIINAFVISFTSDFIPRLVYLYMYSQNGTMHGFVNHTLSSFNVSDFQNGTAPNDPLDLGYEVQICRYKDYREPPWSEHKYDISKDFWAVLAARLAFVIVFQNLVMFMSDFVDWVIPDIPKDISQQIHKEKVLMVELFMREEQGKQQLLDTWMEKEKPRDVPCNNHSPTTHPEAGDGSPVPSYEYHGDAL
Assay: Inside-out patch recording of 1PBC block, mutant G510P
Assay type: cell-based
Conditions: G510P; V 80 mV
Endpoint: pIC50
pIC50 (log units): -log10 of the concentration in mol/L.

pIC50 for N#Cc1c(C(F)(F)F)cc(O)n2c1nc1ccccc12 [1PBC] ?
4.26

* * *

Biological target: mouse TMEM16A mutant V543A (Mus musculus, UniProt Q8BHY3, V543A)
Construct: expressed in transfected cells; host or cells: HEK293T
Sequence (Q8BHY3 whole entry V543A): as the sequence (Q8BHY3 whole entry G510P) above, with P510G, V543A counted along it
Experiment: Inside-out patch recording of 1PBC block, mutant V543A
Assay type: cell-based
Settings: 120 mV; 15 µM Ca2+
Endpoint: pIC50
pIC50 (log units): -log10 of the concentration in mol/L.

pIC50 for N#Cc1c(C(F)(F)F)cc(O)n2c1nc1ccccc12 ?
5.05
